Hello, the source for this data is a melting point compilation (Tetko et al.; mined from patent text by program, amines drawn as free bases though some values may be those of a salt), in case you need it.

readout.kind: melting point

molecule | melting point
COc1cccc(C=CCN2CCc3nc(N)sc3CC2)c1OC | 87 °C

The record that follows has no melting point shown yet.
For `CC(C)c1cccc(C(C)C)c1NC(=O)NCC1(c2ccccc2)CC1` the molecule record lists melting point as 138 to 142 °C

----------
Some compounds, each annotated with its measured melting point.

Example entries and their recorded answers appear below.
compound | melting point
CC1(C(=O)O)c2ccccc2-c2ccccc21 | 168 to 169 °C
CC1Cc2c(N)c(Cl)cc(C(=O)NCCC34CCCN3CCC4)c2O1 (stereo not given) | 127 to 129 °C
Cc1ccccc1-c1c(-c2ccc(S(C)(=O)=O)cc2)oc2ccccc2c1=O | 190 to 191 °C
N#CC1=C(C#N)Sc2nc3cc([N+](=O)[O-])c([N+](=O)[O-])cc3nc2S1 | 230 to 233 °C
O=C(Cl)c1ccccc1SSc1ccccc1C(=O)Cl | 145 to 148 °C

Sample `CCCSc1ccc(C(=O)OC)nc1` ; melting point observed: 33 to 35 °C

// field: melting point; key: `Fc1cccc(-c2cncnc2)c1` ; value = 63 to 63.5 °C

The compound `CCN(CC)c1cccc(NC(=O)COC(C)=O)c1C#N` showed melting point equal to 50 to 51 °C

melting point measured on C[C@@H]1N[C@@H](c2ccc(C#N)cc2)[C@H]2C(=O)N(Cc3ccccc3)C(=O)[C@H]21 (racemic) = 169 to 170 °C

// `CCN(CC)C(=O)c1c(OC)cccc1-c1ccccc1` : melting point value = 79 to 80 °C

----------
readout.kind: melting point

Sample `CCCCc1c(C(=O)N(C)Cc2ccc3c(Br)c(O)ccc3c2)oc2ccccc12` ; melting point observed: 53 to 56 °C

Lab book: melting point of `COC(=O)/C=C/c1ccc(-c2ccc(C(C)C)cc2)s1` noted as 117 to 119 °C

Lab note: `Cc1cn([C@@H]2C[C@H](C(=O)OC(c3ccccc3)c3ccccc3)N(CCNC(=O)OCC3c4ccccc4-c4ccccc43)C2)c(=O)n(C(=O)c2ccccc2)c1=O` gave melting point of 94 to 98 °C

For reference, reported melting point for CCCCCCCCCCCCC(C)CNc1cc(C)c([N+](=O)[O-])cc1C(N)=O (centres undefined) stands at 117 to 119 °C

Measured melting point of CC(C)(C)OC(=O)N1CCC(CCNC2(c3ccccc3Cl)C(=O)Nc3cc(Cl)c(Cl)cc32)CC1 (centres undefined) : 248 to 249 °C

The compound identified as O=C(O)C1Cc2c(ncn2Cc2ccccc2O)CN1C(=O)C(c1ccccc1)c1ccccc1 (centres undefined) registered its melting point at 187 to 190 °C

In plain terms, `CCCCC1(Cn2ccnc2)SCCS1` has a documented melting point of 131 to 135 °C

GET /value?item= `COC(=O)c1ccc(C(=O)NCc2cccc3ccccc23)s1` &field=melting point returns 125 °C

For record `N#CC1(c2nnn[nH]2)CCCC1` the listed melting point is 92 to 94 °C

----------
Each record here notes measured melting point.

smiles | melting point
CN(C(=O)c1coc(C=Cc2ccc(C(F)(F)F)cc2)n1)c1ccc(CCCCn2ccnn2)cc1 | 127 to 129 °C
Cn1cc(C(=O)NCc2ccc(Cl)cc2)c(=O)c2cc(CN(CCO)Cc3ccccc3)ccc21 | 133 to 135 °C
O=C(O)c1cc(-c2ccc3c(c2)CCO3)nn(CC=Cc2ccc(Cl)cc2)c1=O | 177 to 181 °C

Sure, the documented melting point for `O=c1ccn(-c2cccc(C(F)(F)F)c2)nc1-c1ccn[nH]1` is 192 to 194 °C

// `Cc1nc2cc(NC(=O)c3cc4cc(F)ncc4n3Cc3cccc(F)c3)ccc2n1C` : melting point value = 245 to 247 °C

The compound `CS(=O)(=O)C(=C1CN(C(c2ccccc2)c2ccccc2)C1)c1cccc(C(F)(F)F)c1` showed melting point equal to 178 °C

The recorded melting point for `CC1(C)CCC(N2c3ccccc3Oc3ccc(C(F)(F)F)cc32)=N1` is 64 to 67 °C

Looking up `NC(=O)C[C@H](NC(=O)CCc1ccc(OCc2ccccc2)cc1OCc1ccccc1)C(=O)N1CCN(c2ccccc2)CC1` , I found its melting point recorded as 96 to 98 °C

Reported melting point ( `Cc1ccc(C)n1-c1ccc(OC(C)(C)C(=O)O)cc1` ) = 178 to 180 °C
